Molecular target: Prothrombin/thrombin (Homo sapiens)
Labelling field: enter 1 if recorded Ki is less than 40 nM. Enter -1 if it equals or exceeds that cut-off.

Some solved cases for reference:
1. N=C(NO)N1CCC(CNC(=O)[C@@H]2CC[C@H]3CN(S(=O)(=O)CC(c4ccccc4)c4ccccc4)CC(=O)N32)CC1 ... 1
2. O=C(NCc1ccc2nc[nH]c2c1)[C@@H]1CC[C@H]2CN(S(=O)(=O)C(c3ccccc3)c3ccccc3)CC(=O)N21 ... -1
3. N=C(NO)N1CCC(CNC(=O)[C@@H]2CC[C@H]3CN(S(=O)(=O)C(c4ccccc4)c4ccccc4)CC(=O)N32)CC1 ... 1
4. N=C(N)N1CCC(CNC(=O)[C@@H]2CC[C@H]3CN(C(=O)CCc4ccccc4)CC(=O)N32)CC1 ... -1
5. N=C(N)N1CCC(CNC(=O)[C@@H]2CC[C@H]3CN(S(=O)(=O)CC(c4ccccc4)c4ccccc4)CC(=O)N32)CC1 ... 1
6. Nc1ccc(CNC(=O)[C@@H]2CC[C@H]3CN(S(=O)(=O)CC(c4ccccc4)c4ccccc4)CC(=O)N32)cn1 ... 1

Now look at this entry.
API: query returns whether the molecule falls strictly under 40 nM in Ki. Query: `Cc1nc(N)ccc1CNC(=O)[C@@H]1CC[C@H]2CN(S(=O)(=O)CC(c3ccccc3)c3ccccc3)CC(=O)N21`
-1
